Cited source: ChEMBL document CHEMBL1201862

molecular target: Ataxin-2 (Homo sapiens) (UniProt Q99700); assay: qHTS for Inhibitors of ATXN expression.; type: functional
Sequence (Q99700 whole entry): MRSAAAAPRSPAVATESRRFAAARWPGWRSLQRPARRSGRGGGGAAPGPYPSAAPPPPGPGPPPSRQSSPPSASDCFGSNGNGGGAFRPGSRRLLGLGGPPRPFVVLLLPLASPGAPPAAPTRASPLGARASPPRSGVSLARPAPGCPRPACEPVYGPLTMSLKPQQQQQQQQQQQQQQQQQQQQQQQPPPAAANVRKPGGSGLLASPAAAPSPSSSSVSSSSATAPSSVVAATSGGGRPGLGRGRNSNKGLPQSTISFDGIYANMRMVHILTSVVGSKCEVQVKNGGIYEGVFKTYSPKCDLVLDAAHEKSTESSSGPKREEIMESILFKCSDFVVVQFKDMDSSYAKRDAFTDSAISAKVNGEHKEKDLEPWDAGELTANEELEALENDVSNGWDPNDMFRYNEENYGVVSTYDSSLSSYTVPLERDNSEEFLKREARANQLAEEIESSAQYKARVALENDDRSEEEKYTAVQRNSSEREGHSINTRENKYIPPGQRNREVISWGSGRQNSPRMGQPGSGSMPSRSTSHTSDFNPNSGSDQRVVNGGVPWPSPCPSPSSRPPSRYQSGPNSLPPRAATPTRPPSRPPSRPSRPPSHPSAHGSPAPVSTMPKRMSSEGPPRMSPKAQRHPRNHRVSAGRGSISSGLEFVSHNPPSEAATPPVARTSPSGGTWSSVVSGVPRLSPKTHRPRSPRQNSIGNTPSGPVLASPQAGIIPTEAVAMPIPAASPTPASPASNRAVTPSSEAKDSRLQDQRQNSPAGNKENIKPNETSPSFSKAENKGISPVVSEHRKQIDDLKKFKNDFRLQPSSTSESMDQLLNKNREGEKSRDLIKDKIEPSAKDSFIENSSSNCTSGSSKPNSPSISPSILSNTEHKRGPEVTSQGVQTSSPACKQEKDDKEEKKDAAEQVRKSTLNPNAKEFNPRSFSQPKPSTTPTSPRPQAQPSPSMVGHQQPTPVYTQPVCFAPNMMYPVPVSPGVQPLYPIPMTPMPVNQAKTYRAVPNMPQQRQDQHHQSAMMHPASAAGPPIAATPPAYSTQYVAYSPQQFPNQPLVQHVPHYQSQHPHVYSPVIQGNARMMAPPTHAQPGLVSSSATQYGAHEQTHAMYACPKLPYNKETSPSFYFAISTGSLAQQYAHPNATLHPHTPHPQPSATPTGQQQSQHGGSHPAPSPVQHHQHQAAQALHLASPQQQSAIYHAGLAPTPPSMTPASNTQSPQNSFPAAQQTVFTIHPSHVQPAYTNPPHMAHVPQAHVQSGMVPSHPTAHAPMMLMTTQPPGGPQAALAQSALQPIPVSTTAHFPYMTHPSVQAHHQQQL
Screen size: about 400,000 compounds; about 2,100 (0.53%) were called active. About 14% were inconclusive and are not listed. No rule for the calls is given here. What follows is part of a selection rich in actives, with near analogues and random picks from the rest.
Your answer must be one of the following: active, inactive

*Q* Hi, do you know how `O=C(CC(=O)N/N=C/c1ccc(C(=O)O)cc1)NCCc1ccccc1` came out in this test?
*A* inactive

*Q* Follow-up entry: `COc1ccc(-n2cccc2/C=C/[N+](=O)[O-])cc1`
*A* active

*Q* Follow-up entry: `Cc1c(CC(=O)NCc2ccccc2Cl)c(=O)oc2cc(O)ccc12`
*A* inactive

*Q* Follow-up entry: Cc1sc(NC(=O)c2ccccc2)c(C(c2ccc(Cl)cc2)N2CCN(CCO)CC2)c1C (stereo not given)
*A* active

*Q* Follow-up entry: COc1ccc(CCC(C)NCCc2ccc(Cl)cc2Cl)cc1 (stereo not given)
*A* active

====

molecular target: Ataxin-2 (Homo sapiens); assay: qHTS for Inhibitors of ATXN expression.; type: functional
Hit rate of the full screen: of about 400,000 compounds, about 2,100 (0.53%) were called active. About 14% were inconclusive and are not listed. The list comes from a sample in which actives are over-represented; it also holds close analogues and randomly drawn compounds.
Observation type: Potency

# example entries with known answers
*Q* Quick one: Potency of `COc1ccc(-c2nn(-c3ccccc3)cc2C(=O)Nc2ccc(C(=O)O)cc2)cc1OC` ?
*A* inactive

*Q* Follow-up entry: CC1=C(C(=O)OC(C)C)C(c2ccc(Cl)cc2)n2c(s/c(=C\c3ccc(OCC(=O)O)cc3)c2=O)=N1 (stereo not drawn)
*A* inactive

*Q* Follow-up entry: CCC(=O)Oc1ccc2c(c1)OC1(OC(C)=O)OC(C)CC1=C2C (stereo not drawn)
*A* inactive

*Q* Follow-up entry: `CCNc1nc(C)c(CN(C(C)=O)c2ccccc2)nc1C#N`
*A* inactive

*Q* Follow-up entry: `COc1ccccc1OCc1ccc(C(=O)Nc2ccccc2)cc1`
*A* inactive

*Q* Follow-up entry: `CCOc1cc(C(N)=O)cc(Br)c1OCc1ccccc1`
*A* inactive

*Q* Follow-up entry: `Nc1cccc2c1C(=O)N(CCOc1ccc(F)cc1)C2=O`
*A* inactive

*Q* Follow-up entry: `CCCc1nc2c(C)cc(Br)cn2c1Cc1ccc(C)cc1`
*A* 20 µM (active)

*Q* Follow-up entry: CC(=O)N1c2c(cc(Br)cc2S(=O)(=O)NCc2ccc(C)cc2)CC1C (stereo not drawn)
*A* inactive

*Q* Follow-up entry: Cc1cc(OCC(=O)OCC(=O)NCC2CCCO2)ccc1Cl (stereo not drawn)
*A* inactive

New cases:
*Q* Quick one: Potency of `Cc1cccn2c(=O)c3cc(C#N)/c(=N\C(=O)c4ccncc4)n(CCCOC(C)C)c3nc12` ?
*A* inactive

*Q* Follow-up entry: `O=C(O)c1ccc(C=C(c2nc3ccccc3s2)c2nc3ccccc3s2)cc1`
*A* inactive

*Q* Follow-up entry: `COc1ccc(CCn2c(C)cc(C(=O)CCl)c2C)cc1OC`
*A* 39.8 µM (active)

====

biological target: Ataxin-2 (Homo sapiens) (UniProt Q99700); test: qHTS for Inhibitors of ATXN expression.; format: functional
The campaign covered roughly 400,000 compounds. About 2,100 (0.53%) were called active. Inconclusive results (about 14%) are left out. No rule for the calls is given here. This is one part of a sample in which actives are shown more often than they occur.
Your answer must be one of the following: yes for active, no for inactive

*Q* Hi, do you know how `Cc1ccc(NC(=O)c2sc3nc(C)cc(C)c3c2N)cc1` came out in this test?
*A* no

*Q* Follow-up entry: `CCN(c1ccccc1)S(=O)(=O)c1ccc(NC(=O)c2nc(S(C)(=O)=O)ncc2Cl)cc1`
*A* yes

*Q* Follow-up entry: `O=C(NC1CCCC1)c1cccc2c1C(=O)c1ccc(/C=C/c3ccccc3)cc1S2(=O)=O`
*A* no

*Q* Follow-up entry: `COC(=O)c1nc2ccc(N3CCOCC3)cc2c(C)c1C(=O)OC`
*A* no

*Q* Follow-up entry: `CCOC(=O)c1cnc2c(C)cc(Cl)cc2c1N1CCN(C)CC1`
*A* no

*Q* Follow-up entry: CC(NC(=O)OC(C)(C)C)C(=O)Oc1ccc2ccc(=O)oc2c1 (stereo unspecified)
*A* no

====

target: Ataxin-2 (Homo sapiens); experiment: qHTS for Inhibitors of ATXN expression.; format: functional
Among all 400,000 compounds or so, about 2,100 (0.53%) were called active. Inconclusive results (about 14%) are left out. No rule for the calls is given here. What follows is part of a selection rich in actives, with near analogues and random picks from the rest.
Your answer must be one of the following: active, inactive

*Q* Hi, do you know how `CC1CCN(c2ccc3c(c2)S(=O)(=O)c2cccc(C(=O)O)c2C3=O)CC1` came out in this test?
*A* inactive

*Q* Follow-up entry: Cc1cccc(N2CCN(C(=O)c3cc4c(=O)n(C)c5ccccc5c4n3C)CC2C)c1 (stereo not drawn)
*A* active

*Q* Follow-up entry: `COc1cccc(-n2cnnc2SCC(=O)NC2CC2)c1`
*A* inactive

*Q* Follow-up entry: `CC(=O)/N=c1\c(C#N)cc2c(=O)n3cccc(C)c3nc2n1Cc1ccco1`
*A* inactive

*Q* Follow-up entry: CC1(C(=O)OCC(=O)Nc2cc(S(=O)(=O)N3CCOCC3)ccc2Cl)CC1(Cl)Cl (stereo not drawn)
*A* inactive

*Q* Follow-up entry: `Cn1nc(NC(=O)C(F)(F)F)c2ncc(-c3ccc(Cl)cc3)nc21`
*A* inactive

*Q* Follow-up entry: `CCN(C(=O)CSc1nc2n[nH]c(C)c2c(=N)n1-c1cccc(OC)c1)c1cccc(C)c1`
*A* active

*Q* Follow-up entry: COc1ccc(CCNC2CCc3ccccc3C2)cc1 (stereo not drawn)
*A* inactive

*Q* Follow-up entry: `O=C(Nc1nccs1)c1cccnc1O`
*A* inactive

*Q* Follow-up entry: `CN1C2CCC1/C(=C/c1cccn1C)C(=O)/C2=C\c1cccn1C`
*A* inactive

*Q* Follow-up entry: `CCOC(=O)N1CCN(Cc2nc3ccc([N+](=O)[O-])cc3c(=O)n2-c2cccc(OC)c2)CC1`
*A* inactive

*Q* Follow-up entry: `COc1ccccc1[C@H]1C(c2cccc(C)c2)=NN(c2ccccc2)[C@@H]1CO`
*A* inactive

*Q* Follow-up entry: `Cc1ccc2nc(-c3ccccc3)c(Cc3cccc(F)c3)n2c1`
*A* active

*Q* Follow-up entry: `Cc1ccc2nc(Cl)nc(-c3ccccc3)c2c1`
*A* inactive

*Q* Follow-up entry: `COc1ccc(C(=O)COC(=O)/C=C/c2ccco2)cc1F`
*A* inactive

*Q* Follow-up entry: `Cc1cc(NC(C)C)n2c(nc3ccccc32)c1C#N`
*A* inactive

*Q* Follow-up entry: `COc1ccc(CNCCSc2nnnn2C)c(OC)c1OC`
*A* inactive

*Q* Follow-up entry: `Cc1nc2nc(-c3cccs3)cn2nc1C`
*A* inactive

*Q* Follow-up entry: `COc1ccc(N2CCN(C(=O)[C@H](C)NC(=O)c3ccccc3Cl)CC2)cc1`
*A* inactive

*Q* Follow-up entry: `C[C@H](O)[C@@H]1C(=O)N2CCc3c([nH]c4ccccc34)[C@@H]2C[C@@H]1N(C)C(=O)c1ccco1`
*A* inactive

*Q* Follow-up entry: `COc1ccc(S(=O)(=O)N(C)C[C@H]2Oc3c(NC(=O)Nc4ccc(C(F)(F)F)cc4)cccc3C(=O)N([C@H](C)CO)C[C@@H]2C)cc1`
*A* active

*Q* Follow-up entry: COc1ccc(C2CC(c3ccccc3)=NN2c2ccccc2)c(C(=O)O)c1OC (stereo not drawn)
*A* inactive

*Q* Follow-up entry: `O=S(=O)(Nc1cccc(-c2nc3cccnc3s2)c1)c1ccc2c(c1)CCCC2`
*A* inactive

====

molecular target: Ataxin-2 (Homo sapiens) (UniProt Q99700); assay: qHTS for Inhibitors of ATXN expression.; assay type: functional
The whole screen tested about 400,000 compounds, of which about 2,100 (0.53%) were called active. Not shown: some 14% with an inconclusive outcome. The entries come from a sample that favours actives as a whole.
Observation type: Potency

# example entries with known answers
*Q* Quick one: Potency of `COc1ccccc1C(=O)/C=C/c1ccc(N2CCCCC2)c([N+](=O)[O-])c1` ?
*A* 39.8 µM (active)

*Q* Follow-up entry: Cc1ccccc1C1N=C2Oc3ccccc3C=C2C(=O)N1 (stereo not drawn)
*A* inactive

*Q* Follow-up entry: `CN(Cc1ccccc1)S(=O)(=O)c1ccc(OCC(=O)N2CCC(C(N)=O)CC2)cc1`
*A* inactive

*Q* Follow-up entry: `COc1cc(/C=C(\C#N)c2nc3ccccc3[nH]2)ccc1OCc1ccc(F)cc1`
*A* inactive

*Q* Follow-up entry: `Cc1c(-c2ccccc2)c(=O)oc2c(CN3CCN(C)CC3)c(O)ccc12`
*A* inactive

*Q* Follow-up entry: O=C(NCC(c1ccco1)N1CCCC1)c1cc(S(=O)(=O)N2CCOCC2)ccc1Cl (stereo not drawn)
*A* inactive

New cases:
*Q* Quick one: Potency of `O=[N+]([O-])c1ccc(Cc2nnc(O)c3ccccc23)cc1` ?
*A* inactive

*Q* Follow-up entry: `COc1cccc(CNCCc2c[nH]c3ccccc23)c1OCc1ccccc1F`
*A* 28.2 µM (active)

*Q* Follow-up entry: `O=C(Cn1cnc2ccccc21)Nc1cccc([N+](=O)[O-])c1`
*A* inactive

*Q* Follow-up entry: COCC(=O)Nc1nc2n(n1)C(c1ccc(Cl)cc1)CC(c1ccc(OC)cc1)N2 (stereo not drawn)
*A* inactive

*Q* Follow-up entry: `CN(Cc1ccccc1)S(=O)(=O)c1ccc(N2CCOCC2)nc1`
*A* inactive

*Q* Follow-up entry: `CC(=O)c1ccccc1NC(=O)c1cc(S(=O)(=O)N2CCOCC2)ccc1N1CCCC1`
*A* inactive

*Q* Follow-up entry: `CCc1cc2c(-c3ccccc3)cc(=O)oc2c2c1OCN(Cc1ccc(F)cc1)C2`
*A* inactive

*Q* Follow-up entry: `CC(=O)Oc1ccccc1C(=O)C=Cc1cccc([N+](=O)[O-])c1`
*A* 39.8 µM (active)
